Protocol Description: Half-lives and pharmacokinetic parameters of polypeptides vs HM-1
Condition Set: in vivo
Peptide text beside a SMILES is read from it. * marks the point of attachment. MaleimidoPEG4propanoyl = O=C1C=CC(=O)N1CCOCCOCCOCCOCCC(=O)*; X21 = O=C1C=CC(=O)N1CCOCCCCCCC(=O)*
# clearance listing for each entry below
Give just the numeric value; mL/min/kg need not be written.

query: Field request: clearance | item: C[C@H](NC(=O)CNC(=O)[C@H](CCCNC(=N)N)NC(=O)CCCCCCOCCN1C(=O)C=CC1=O)C(=O)N[C@@H](CC(=O)O)C(=O)N[C@@H](CCCNC(=N)N)C(=O)N[C@@H](C)C(=O)NCC(=O)NCC(=O)NCC(=O)NCC(=O)N[C@@H](CCCNC(=N)N)C(=O)NCC(=O)N[C@@H](CC(=O)O)C(=O)O [X54] (X21-RGADRAGGGGRGD-OH)
result: 0.612

query: Can you handle C[C@H](NC(=O)CNC(=O)[C@H](CCCNC(=N)N)NC(=O)CCOCCOCCOCCOCCN1C(=O)C=CC1=O)C(=O)N[C@@H](CC(=O)O)C(=O)N[C@@H](CCCNC(=N)N)C(=O)N[C@@H](C)C(=O)NCC(=O)NCC(=O)NCC(=O)NCC(=O)N[C@@H](CCCNC(=N)N)C(=O)NCC(=O)N[C@@H](CC(=O)O)C(=O)O [X71] (MaleimidoPEG4propanoyl-RGADRAGGGGRGD-OH) next?
result: 0.588

---

Protocol Description: Half-lives and pharmacokinetic parameters of polypeptides vs HM-1
Condition Set: in vivo
Peptide text beside a SMILES is read from it. * marks the point of attachment. X29 = O=C1C=CC(=O)N1CCOCCOCCOCCOCCOCCOCCCC(=O)*; X68 = O=C1C=CC(=O)N1c1ccccc1CCCCCCCCCCCC(=O)*; X46 = O=C1C=CC(=O)N1c1cccc(CCCCC(=O)*)c1; X3 = O=C1C=CC(=O)N1CCOCCOCCCCC(=O)*; X67 = O=C1C=CC(=O)N1CCCCCCCCCC(=O)*
Lab note: compare clearance with 0.6 mL/min/kg, writing condition met if less and condition not met if equal or more.

Here are 4 molecules together with their reported answers.
1) C[C@H](NC(=O)CNC(=O)[C@H](CCCNC(=N)N)NC(=O)CCCCOCCOCCN1C(=O)C=CC1=O)C(=O)N[C@@H](CC(=O)O)C(=O)N[C@@H](CCCNC(=N)N)C(=O)N[C@@H](C)C(=O)NCC(=O)NCC(=O)NCC(=O)NCC(=O)N[C@@H](CCCNC(=N)N)C(=O)NCC(=O)N[C@@H](CC(=O)O)C(=O)O [X59] (X3-RGADRAGGGGRGD-OH) | condition met
2) C[C@H](NC(=O)CNC(=O)[C@H](CCCNC(=N)N)NC(=O)CCCCCCCCCN1C(=O)C=CC1=O)C(=O)N[C@@H](CC(=O)O)C(=O)N[C@@H](CCCNC(=N)N)C(=O)N[C@@H](C)C(=O)NCC(=O)NCC(=O)NCC(=O)NCC(=O)N[C@@H](CCCNC(=N)N)C(=O)NCC(=O)N[C@@H](CC(=O)O)C(=O)O [X9] (X67-RGADRAGGGGRGD-OH) | condition met
3) C[C@H](NC(=O)CNC(=O)[C@H](CCCNC(=N)N)NC(=O)CCCCc1cccc(N2C(=O)C=CC2=O)c1)C(=O)N[C@@H](CC(=O)O)C(=O)N[C@@H](CCCNC(=N)N)C(=O)N[C@@H](C)C(=O)NCC(=O)NCC(=O)NCC(=O)NCC(=O)N[C@@H](CCCNC(=N)N)C(=O)NCC(=O)N[C@@H](CC(=O)O)C(=O)O [X28] (X46-RGADRAGGGGRGD-OH) | condition not met
4) C[C@H](NC(=O)CNC(=O)[C@H](CCCNC(=N)N)NC(=O)CCCCCCCCCCCc1ccccc1N1C(=O)C=CC1=O)C(=O)N[C@@H](CC(=O)O)C(=O)N[C@@H](CCCNC(=N)N)C(=O)N[C@@H](C)C(=O)NCC(=O)NCC(=O)NCC(=O)NCC(=O)N[C@@H](CCCNC(=N)N)C(=O)NCC(=O)N[C@@H](CC(=O)O)C(=O)O [X23] (X68-RGADRAGGGGRGD-OH) | condition not met

Now take the following molecule into account.
query: Say whether its clearance is strictly beneath 0.6 mL/min/kg. Entry: C[C@H](NC(=O)CNC(=O)[C@H](CCCNC(=N)N)NC(=O)CCCOCCOCCOCCOCCOCCOCCN1C(=O)C=CC1=O)C(=O)N[C@@H](CC(=O)O)C(=O)N[C@@H](CCCNC(=N)N)C(=O)N[C@@H](C)C(=O)NCC(=O)NCC(=O)NCC(=O)NCC(=O)N[C@@H](CCCNC(=N)N)C(=O)NCC(=O)N[C@@H](CC(=O)O)C(=O)O [X86] (X29-RGADRAGGGGRGD-OH)
result: condition not met

---

Test system: xylene-induced ear swelling
Protocol Description: Xylene-induced mouse ear swelling
Format: in vivo
Condition Set: Kunming mice, dose 8 mg/kg, injected once a day for 5 days; right minus left ear piece weight 2 h after xylene
Marks after values point to notes of the source that are not given here. Peptide text beside a SMILES is read from it. * marks the point of attachment. X74 = O=C1C=CC(=O)N1c1cccc(CCCCCCCCCCC(=O)*)c1; X72 = O=C1C=CC(=O)N1c1ccccc1CCCCCCCCCCC(=O)*; X71 = O=C1C=CC(=O)N1c1cccc(CCCCCC(=O)*)c1; X46 = O=C1C=CC(=O)N1c1cccc(CCCCC(=O)*)c1; X79 = O=C1C=CC(=O)N1c1cccc(CCC(=O)*)c1
Property Measured: Swelling degree (mg)

1) C[C@H](NC(=O)CNC(=O)[C@H](CCCNC(=N)N)NC(=O)CCCCCc1cccc(N2C(=O)C=CC2=O)c1)C(=O)N[C@@H](CC(=O)O)C(=O)N[C@@H](CCCNC(=N)N)C(=O)N[C@@H](C)C(=O)NCC(=O)NCC(=O)NCC(=O)NCC(=O)N[C@@H](CCCNC(=N)N)C(=O)NCC(=O)N[C@@H](CC(=O)O)C(=O)O [X29] (X71-RGADRAGGGGRGD-OH) | 3.86 ± 0.45** mg
2) C[C@H](NC(=O)CNC(=O)[C@H](CCCNC(=N)N)NC(=O)CCc1cccc(N2C(=O)C=CC2=O)c1)C(=O)N[C@@H](CC(=O)O)C(=O)N[C@@H](CCCNC(=N)N)C(=O)N[C@@H](C)C(=O)NCC(=O)NCC(=O)NCC(=O)NCC(=O)N[C@@H](CCCNC(=N)N)C(=O)NCC(=O)N[C@@H](CC(=O)O)C(=O)O [X26] (X79-RGADRAGGGGRGD-OH) | 4.54 ± 0.61** mg
3) C[C@H](NC(=O)CNC(=O)[C@H](CCCNC(=N)N)NC(=O)CCCCc1cccc(N2C(=O)C=CC2=O)c1)C(=O)N[C@@H](CC(=O)O)C(=O)N[C@@H](CCCNC(=N)N)C(=O)N[C@@H](C)C(=O)NCC(=O)NCC(=O)NCC(=O)NCC(=O)N[C@@H](CCCNC(=N)N)C(=O)NCC(=O)N[C@@H](CC(=O)O)C(=O)O [X28] (X46-RGADRAGGGGRGD-OH) | 4.12 ± 0.93* mg

query: Field request: Swelling degree (mg) | item: C[C@H](NC(=O)CNC(=O)[C@H](CCCNC(=N)N)NC(=O)CCCCCCCCCCc1cccc(N2C(=O)C=CC2=O)c1)C(=O)N[C@@H](CC(=O)O)C(=O)N[C@@H](CCCNC(=N)N)C(=O)N[C@@H](C)C(=O)NCC(=O)NCC(=O)NCC(=O)NCC(=O)N[C@@H](CCCNC(=N)N)C(=O)NCC(=O)N[C@@H](CC(=O)O)C(=O)O [X34] (X74-RGADRAGGGGRGD-OH)
result: 3.2 ± 0.39** mg

query: Can you handle C[C@H](NC(=O)CNC(=O)[C@H](CCCNC(=N)N)NC(=O)CCCCCCCCCCc1ccccc1N1C(=O)C=CC1=O)C(=O)N[C@@H](CC(=O)O)C(=O)N[C@@H](CCCNC(=N)N)C(=O)N[C@@H](C)C(=O)NCC(=O)NCC(=O)NCC(=O)NCC(=O)N[C@@H](CCCNC(=N)N)C(=O)NCC(=O)N[C@@H](CC(=O)O)C(=O)O [X22] (X72-RGADRAGGGGRGD-OH) next?
result: 3.42 ± 0.21** mg

---

Test system: IL-1β production by mouse peritoneal macrophages
Protocol Description: IL-1β production by mouse peritoneal macrophages (ELISA)
Type: cell-based
Condition Set: dose 0.05 μM; mouse peritoneal macrophages, 48 h, ELISA
Peptide text beside a SMILES is read from it. * marks the point of attachment. X58 = O=C1C=CC(=O)N1c1cccc(CCCCCCCCCCCC(=O)*)c1; X59 = O=C1C=CC(=O)N1c1cccc(CCCCCCCCC(=O)*)c1; X46 = O=C1C=CC(=O)N1c1cccc(CCCCC(=O)*)c1
Property Measured: IL-1β

query: Field request: IL-1β | item: C[C@H](NC(=O)CNC(=O)[C@H](CCCNC(=N)N)NC(=O)CCCCc1cccc(N2C(=O)C=CC2=O)c1)C(=O)N[C@@H](CC(=O)O)C(=O)N[C@@H](CCCNC(=N)N)C(=O)N[C@@H](C)C(=O)NCC(=O)NCC(=O)NCC(=O)NCC(=O)N[C@@H](CCCNC(=N)N)C(=O)NCC(=O)N[C@@H](CC(=O)O)C(=O)O [X28] (X46-RGADRAGGGGRGD-OH)
result: 792.64 ± 11.74 pg/mL

query: Can you handle C[C@H](NC(=O)CNC(=O)[C@H](CCCNC(=N)N)NC(=O)CCCCCCCCc1cccc(N2C(=O)C=CC2=O)c1)C(=O)N[C@@H](CC(=O)O)C(=O)N[C@@H](CCCNC(=N)N)C(=O)N[C@@H](C)C(=O)NCC(=O)NCC(=O)NCC(=O)NCC(=O)N[C@@H](CCCNC(=N)N)C(=O)NCC(=O)N[C@@H](CC(=O)O)C(=O)O [X32] (X59-RGADRAGGGGRGD-OH) next?
result: 771.56 ± 13.41 pg/mL

query: Can you handle C[C@H](NC(=O)CNC(=O)[C@H](CCCNC(=N)N)NC(=O)CCCCCCCCCCCc1cccc(N2C(=O)C=CC2=O)c1)C(=O)N[C@@H](CC(=O)O)C(=O)N[C@@H](CCCNC(=N)N)C(=O)N[C@@H](C)C(=O)NCC(=O)NCC(=O)NCC(=O)NCC(=O)N[C@@H](CCCNC(=N)N)C(=O)NCC(=O)N[C@@H](CC(=O)O)C(=O)O [X35] (X58-RGADRAGGGGRGD-OH) next?
result: 718.81 ± 11.53 pg/mL
